System: MS2 coat protein
METHOD_NOTES: apparent KD of MS2 coat protein; higher = weaker reporter binding
SETUP_CONDITIONS: Eterna round: R107; input ligand: theophylline 20 uM
MEASUREMENT_NAME: apparent KD of MS2 coat protein (µM)
Answers are plain numbers, in µM.

Known apparent KD of MS2 coat protein results, listed for orientation:
1. AAACAACAUGAGGAUCACCCAUGUACCGAUACCAGCCAAAUAUAAGGCCCUUGGCAGCGGAGUAAAUCCGGAGGACAAUGGGUAA [Same State Theophylline A GF5] = 0.0392
2. CUACAUUUGUAGAAACCGGUCAACAUUAUUCGAGGACCGGUACGGCCGCCACUCGUAUAUUUUAAUACAUGAGGAUCACCCAUGU [Tryptophan A 6] = 0.0142
3. AAACAUGAGGAUCACCCAUGUAUGUUAUUACGAGGACCGGUACGGCCGCCACUCGAUAGAGUAGAAGUAAAUUGUAAUUCAUGUU [JR_ExcTryptoA_Sub017] = 0.0188

Lab note: each sequence below needs its apparent KD of MS2 coat protein filled in.
1. GUAUUAACAAAAGUUGAUACAGUGGGUGAACGAGGACCGGUACGGCCGCCACUCGGACAUGAGGAUCACCCAUGUCCAUGUGAAA [AstrosExyTryA#12]
2. AUAACAUGAGGAUCACCCAUGUAUUGGUUACGAGGACCGGUACGGCCGCCACUCGUAUUUUGGUGGUAUUUUGUAUAUAUGAUAA [JR_SSTryptoA_Sub018]
3. ACAUGAAGAACAGCGGUGGGCGCGCUCGAUACCAGUACUUUGAUUUACCCUUGGCAGCGACAUGAGGAUCACCCAUGUGAGAUGA [XTheo A #1]

Result:
1. 0.0192
2. 0.0323
3. 0.0224

* * *

Record form. Attribute: apparent KD of MS2 coat protein. Fill in for each entry.
System: MS2 coat protein
METHOD_NOTES: apparent KD of MS2 coat protein; designed switch direction (-1 OFF switch, 1 ON switch): -1; higher = weaker reporter binding
SETUP_CONDITIONS: input ligand: none
Numbers only, in µM.

Known apparent KD of MS2 coat protein results, listed for orientation:
1. CAGACCCGCCUUGGUCACAUGAGGAUCACCCAUGUUUAGGUCUAGGAUAUGGCCGUCGAGGACGGCCAGAAGGAGAAUAUCAUG [Eternabot solution 34] (Eterna round: R96, puzzle: Exclusion NG 3) = 0.043
2. AAGAAGAAGUAAGGAUAUGAAGAUCUGGUGGUGACAUGAGGAUCACCCAUGUGAAAACAAUAAGAUCAGAAGGUAUAAGAAGAA [AK ExNG2-3.1] (Eterna round: R96, puzzle: Exclusion NG 2) = 0.0879
3. UAAACAAGCUUAAGAUCCUACAUGAGGAUCACCCAUGUGCUCGUCUUGUAACGUACUGUGACGAAAGUCACGGUACG [JL TOV1 3.09] (Eterna round: R97, puzzle: Sensor, turn-off variant 1) = 0.228

Task: Can you share its apparent KD of MS2 coat protein? I mean this sequence: GAUGAGGGAGUGAGGAUAUAUACCGGCUCACCGGAGUAGAAGGCACAUGAGGAUCACCCAUGUGACCUUAACCU [Eternabot (L2) Solution 92] (Eterna round: R97, puzzle: Brourd's mod of Exclusion 4)
Result: 0.0141

This collection of values is drawn from the supplement of paper PMC9170038.
